Measurement description: Measurement of Log P values by HPLC on reversed phase columns (EEC directive 79/831 Annex V.A8)
Format: physicochemical
Marks after values point to notes of the source that are not given here.
# reported LogP; entries follow
Property: LogP

INSERT INTO assay_data (molecule, property, reported_result) VALUES
  ('Nc1cncn1CC(O)(Cc1ccccc1Cl)C1(Cl)CC1 (racemic)', 'LogP', '1.50^[a]'),
  ('COc1cncn1CC(O)(Cc1ccccc1F)C1(Cl)CC1 (racemic)', 'LogP', '1.67^[a]'),
  ('OC(Cc1ccc(F)cc1)(Cn1cncc1Cl)C1(Cl)CC1 (centres unmarked)', 'LogP', '2.13^[a]'),
  ('O=C(Cc1ccccc1)c1cncn1CC(O)(Cc1ccccc1)C1(Cl)CC1 (centres unmarked)', 'LogP', '3.56^[a]'),
  ('OC(Cc1ccccc1F)(Cn1cncc1Br)C1(Cl)CC1 (racemic)', 'LogP', '2.10^[a]');
